- System: HOP-62
- Protocol Text: NCI tumour cell line growth inhibition, 48 h
Active and inactive are the calls of the source. Rule as the data show it: active = GI50 up to about 1.1 µM and inactive = higher. Where a SMILES comes first, the peptide text is derived from it. The star is where a group is joined. ONb = O=[N+]([O-])c1ccc(CO*)cc1; Boc = CC(C)(C)OC(=O)*
Choose the fitting class; nothing outside 1 (active), -1 (inactive) is accepted.

Observe how each entry below is paired with its result.
Molecule | Cat
O=S(=O)(c1ccccc1)n1c(C(O)c2ccccc2)cc2ccccc21 (stereo unspecified) | -1
Cc1cc(-c2c(F)cc3c4nn([C@H]5CC[C@@H](N(C)C)CC5)c(=O)c-4cn(C4CC4)c3c2F)cc(C)n1 | 1
Nc1ncnc2c1N=C(c1ccccc1)CC(c1ccccc1)N2 (stereo unspecified) | -1
CC1(C)COC(/C=C/C2=NC(C)(C)CO2)=N1 | -1
Nc1c(O)c(C(=O)O)cc2ccccc12 | -1

input: Test call for this molecule, please: COc1ccc(C(O)c2ccc3c(c2)OCO3)cc1 (stereo unspecified)
output: -1

input: Could you please tell me the result logged for COc1cc(C2c3cc4c(cc3OC3(O)COC(=O)C23)OCO4)cc(OC)c1OC (stereo unspecified) in this assay?
output: -1

input: How did this test come out for `O=c1/c(=C/c2cccc3ccccc23)sc2nc3ccccc3n12` ?
output: -1

input: In this assay, the call recorded for `COc1cccc(-c2cc(=O)c3ccccc3o2)c1N` was what?
output: -1

input: What call does the record list for `O=S(=O)(Oc1ccc2oc3ccccc3c2c1-c1c(OS(=O)(=O)C(F)(F)F)ccc2oc3ccccc3c12)C(F)(F)F` ?
output: -1

input: Assay outcome for `CSc1ncnc2c1ncn2CCC(=O)O` : what was it?
output: -1

input: Assay result, entry CCOC(=O)CC1(O)CCCCC1(Sc1ccc(C)cc1)Sc1ccc(C)cc1 (stereo unspecified) — outcome?
output: -1

input: Could you kindly confirm the outcome this assay logged for `O=S1(=O)OCCOS(=O)(=O)C1Cc1nc2ccccc2[nH]1` ?
output: -1

input: Please let me know the test result on file for `COc1ccc(C(=O)c2sc(Nc3ccccc3)nc2N)cc1` .
output: -1

input: Recorded test outcome, item CC(C)CC(NC(=O)OC(C)(C)C)C(=O)NC(CCC(=O)OCc1ccc([N+](=O)[O-])cc1)C(=O)OCc1ccc([N+](=O)[O-])cc1 (stereo not drawn) (Boc-Leu-Glu(ONb)-ONb; configuration not given here)
output: -1

input: Record lookup: outcome of this test for `CC(=N/N=C/c1ccccn1)/C(C)=N/N=C(C)/C(C)=N/N=C(C)/C(C)=N/N=C(C)/C(C)=N\N=C\c1ccccn1` ?
output: -1

input: Which outcome was entered for the molecule `CC1(C)CC(=O)C(=CNc2nc(-c3cccc([N+](=O)[O-])c3)cs2)C(=O)C1` in this test?
output: -1

input: Please indicate how the test categorized `N=C(N)NCCCC(=O)O` .
output: -1

input: Could you check what this test reported for `CCOC(=O)NC(Nc1cccc(C(F)(F)F)c1)(C(F)(F)F)C(F)(F)F` ?
output: -1

input: What did the test return for `O=C(O)CNC(=O)c1c2ccccc2nc2ccccc12` ?
output: -1

input: Short answer needed: outcome of this test for COC(=O)c1ccccc1CC(Cc1ccc2c(c1)CCC2)C(=O)OC (stereo unspecified) ?
output: -1

input: Answer briefly: the call reported for CCCCC(C(=O)CCC(=O)Nc1ccc(Cl)c(Cl)c1)C(=O)C(C)C (stereo unspecified) in this assay.
output: -1

input: Per the assay record, what outcome was assigned to C=C1CC2CC(O)CC(C1)C2 (stereo unspecified) ?
output: -1

input: Record lookup: outcome of this test for `Cc1ccc(Nc2ccc(Nc3ccc(C)cc3S(=O)(=O)O)c3c2C(=O)c2ccccc2C3=O)c(S(=O)(=O)O)c1` ?
output: -1

input: So what was the verdict on `Cn1ccnc1S/C(=C\C=C(C#N)C#N)c1ccc(Cl)cc1` in this test?
output: -1

input: Recorded call for `Cc1c(/C=N/NC(=O)c2ccccc2)c(=O)n(-c2ccccc2)n1C` ?
output: -1

input: What did the test return for CCN1CC2=C(NC(=S)NC2c2ccc(Cl)cc2)/C(=C/c2ccc(Cl)cc2)C1 (stereo unspecified) ?
output: -1

input: Record request — test call for `Nc1c(Br)cc(-c2nc3ccccc3s2)cc1Br`
output: -1
